Molecular target: Histamine H2 receptor (Cavia porcellus) (UniProt P47747)
Sequence (P47747 whole entry): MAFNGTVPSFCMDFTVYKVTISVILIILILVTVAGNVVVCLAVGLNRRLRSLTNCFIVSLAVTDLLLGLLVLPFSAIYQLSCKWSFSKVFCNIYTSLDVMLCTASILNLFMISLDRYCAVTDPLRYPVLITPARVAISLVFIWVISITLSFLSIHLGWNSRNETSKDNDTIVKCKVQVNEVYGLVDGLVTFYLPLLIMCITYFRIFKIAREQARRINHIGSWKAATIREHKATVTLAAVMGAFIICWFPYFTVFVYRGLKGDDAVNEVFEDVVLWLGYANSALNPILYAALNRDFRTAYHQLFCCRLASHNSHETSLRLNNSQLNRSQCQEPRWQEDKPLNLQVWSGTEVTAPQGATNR
Experiment: Relative potency in guinea pig myocardium (GPM) by adenylate cyclase stimulation assay, H2 receptor response
Assay type: functional, tissue-based
Answer each item with its documented Relative potency.
One number for each entry.

Solved entries:
>  <Compound>
Cc1ccc(NC(=O)CCCCCC(C)NCCc2c[nH]cn2)cc1 (stereo unspecified)

>  <Relative potency>
0.02

$$$$
>  <Compound>
CCCCCC(C)NCCc1c[nH]cn1 (stereo unspecified)

>  <Relative potency>
0

$$$$
>  <Compound>
CCCCNC(=O)CCCCC(C)NCCc1c[nH]cn1 (stereo unspecified)

>  <Relative potency>
0.01

$$$$
>  <Compound>
CNC(=O)CNC(=O)C(Cc1ccccc1)N(NC(=O)CCCCC(C)NCCc1c[nH]cn1)C(=O)OC(C)(C)C (stereo unspecified)

>  <Relative potency>
0.0007

$$$$
>  <Compound>
CNC(=O)CNC(=O)C(Cc1ccccc1)N(NC(=O)CCC(C)NCCc1c[nH]cn1)C(=O)OC(C)(C)C (stereo unspecified)

>  <Relative potency>
0

$$$$
>  <Compound>
CC(CCCCC(=O)Nc1ccccc1C(F)(F)F)NCCc1c[nH]cn1 (stereo unspecified)

>  <Relative potency>
0

$$$$
>  <Compound>
CNC(=O)CNC(=O)C(Cc1ccccc1)N(NC(=O)CCCC(C)NCCc1c[nH]cn1)C(=O)OC(C)(C)C (stereo unspecified)

>  <Relative potency>
0

$$$$
>  <Compound>
CCCCCC(=O)NCCc1c[nH]cn1

>  <Relative potency>
0

$$$$

Parameters: items (list). Returns: Relative potency for each item.
1. CCCCCCNCCc1c[nH]cn1
2. Cc1ccc(NC(=O)CCCC(=O)NCCc2c[nH]cn2)cc1

0
0

====

Biological target: Histamine H2 receptor (Mus musculus) (UniProt P97292)
Sequence (P97292 whole entry): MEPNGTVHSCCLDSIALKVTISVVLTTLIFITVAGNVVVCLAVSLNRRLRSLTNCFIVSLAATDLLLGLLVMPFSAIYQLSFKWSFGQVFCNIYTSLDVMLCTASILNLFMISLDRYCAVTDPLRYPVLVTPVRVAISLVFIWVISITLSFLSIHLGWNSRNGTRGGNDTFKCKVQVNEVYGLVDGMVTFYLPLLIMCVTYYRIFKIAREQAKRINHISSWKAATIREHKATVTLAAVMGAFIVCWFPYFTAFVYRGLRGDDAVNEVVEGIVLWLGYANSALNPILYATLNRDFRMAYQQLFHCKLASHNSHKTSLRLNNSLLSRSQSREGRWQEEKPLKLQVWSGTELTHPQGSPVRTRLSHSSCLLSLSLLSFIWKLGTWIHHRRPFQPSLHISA
Test: Relative potency by cAMP assay in natural suppressor cells.
Format: functional, cell-based
Answer each item with its documented Relative potency.
One number for each entry.

Solved entries:
>  <Compound>
Cc1ccc(NC(=O)CCCCCC(C)NCCc2c[nH]cn2)cc1 (stereo not given)

>  <Target entity>
Histamine H2 receptor (Mus musculus) (UniProt P97292)

>  <Relative potency>
2

$$$$
>  <Compound>
CNC(=O)CNC(=O)C(Cc1ccccc1)N(NC(=O)CCCC(C)NCCc1c[nH]cn1)C(=O)OC(C)(C)C (stereo not given)

>  <Target entity>
Histamine H2 receptor (Mus musculus) (UniProt P97292)

>  <Relative potency>
0

$$$$
>  <Compound>
CNC(=O)CNC(=O)C(Cc1ccccc1)N(NC(=O)CCC(C)NCCc1c[nH]cn1)C(=O)OC(C)(C)C (stereo not given)

>  <Target entity>
Histamine H2 receptor (Mus musculus) (UniProt P97292)

>  <Relative potency>
0

$$$$

Parameters: items (list). Returns: Relative potency for each item.
1. Cc1ccc(NC(=O)CCCCNCCc2c[nH]cn2)cc1
2. CC(CCC(=O)Nc1ccc(C(F)(F)F)cc1)NCCc1c[nH]cn1 (stereo not given)

[2, 0]

====

Answer each item with its documented Change.
Target: Histamine H1 receptor (Homo sapiens) (UniProt P35367)
Sequence (P35367 whole entry): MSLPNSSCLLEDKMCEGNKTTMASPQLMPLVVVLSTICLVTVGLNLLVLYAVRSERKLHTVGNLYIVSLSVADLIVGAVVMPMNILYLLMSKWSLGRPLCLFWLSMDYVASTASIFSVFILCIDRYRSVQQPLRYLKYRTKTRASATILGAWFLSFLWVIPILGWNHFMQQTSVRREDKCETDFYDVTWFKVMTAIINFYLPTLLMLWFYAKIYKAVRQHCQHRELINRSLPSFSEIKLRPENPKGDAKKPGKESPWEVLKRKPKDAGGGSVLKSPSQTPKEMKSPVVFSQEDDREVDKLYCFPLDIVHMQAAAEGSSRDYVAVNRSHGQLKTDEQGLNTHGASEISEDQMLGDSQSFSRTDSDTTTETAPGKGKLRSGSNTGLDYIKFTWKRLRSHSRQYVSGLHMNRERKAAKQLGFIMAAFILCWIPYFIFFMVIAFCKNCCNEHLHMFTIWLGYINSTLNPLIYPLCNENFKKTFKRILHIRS
Assay: Effect on peripheral vasculature of the rabbit as percentage change in contractility.
Format: functional, tissue-based
Conditions: Oryctolagus cuniculus, target entry is the homologue from another species
One number for each entry, in %.

Solved entries:
>  <Compound>
NCCc1c[nH]cn1

>  <Target entity>
Histamine H1 receptor (Homo sapiens) (UniProt P35367)

>  <Change / %>
284

$$$$
>  <Compound>
Cc1ccc(NC(=O)CCCC(C)NCCc2c[nH]cn2)cc1 (configuration not stated)

>  <Target entity>
Histamine H1 receptor (Homo sapiens) (UniProt P35367)

>  <Change / %>
90

$$$$

Parameters: items (list). Returns: Change for each item.
1. CC(CCCC(=O)Nc1ccc(C(F)(F)F)cc1)NCCc1c[nH]cn1 (configuration not stated)
2. Cc1ccc(NC(=O)CC(C)NCCc2c[nH]cn2)cc1 (configuration not stated)
3. Cc1ccc(NC(=O)CCCC(=O)NCCc2c[nH]cn2)cc1
4. CCCCCC(=O)NCCc1c[nH]cn1
5. CCCCCCNCCc1c[nH]cn1
6. CCCCCC(C)NCCc1c[nH]cn1 (configuration not stated)
7. CC(CC(=O)Nc1ccc(C(F)(F)F)cc1)NCCc1c[nH]cn1 (configuration not stated)
8. Cc1ccc(NC(=O)CCCCC(C)NCCc2c[nH]cn2)cc1 (configuration not stated)

0
0
0
0
93
0
0
0

Parameters: items (list). Returns: Change for each item.
1. CC(CCCCC(=O)Nc1ccccc1C(F)(F)F)NCCc1c[nH]cn1 (configuration not stated)
2. CNC(=O)CNC(=O)C(Cc1ccccc1)N(NC(=O)CCCC(C)NCCc1c[nH]cn1)C(=O)OC(C)(C)C (configuration not stated)

0
0

====

Biological target: Histamine H1 receptor (Homo sapiens)
Assay: Effect on peripheral vasculature of the rabbit as percentage change in contractility.
Assay type: functional, tissue-based
Details: Oryctolagus cuniculus, target entry is the homologue from another species
Measurement kind: Change (%)
Numbers only, in %.

Solved entries:
>  <Compound>
Cc1ccc(NC(=O)CCCCNCCc2c[nH]cn2)cc1

>  <Measurement kind>
Change

>  <Numeric value>
0

$$$$
>  <Compound>
CCCCNC(=O)CCCCC(C)NCCc1c[nH]cn1 (configuration not stated)

>  <Measurement kind>
Change

>  <Numeric value>
0

$$$$
>  <Compound>
Cc1ccc(NC(=O)CCCCCC(C)NCCc2c[nH]cn2)cc1 (configuration not stated)

>  <Measurement kind>
Change

>  <Numeric value>
0

$$$$
>  <Compound>
Cc1ccc(NC(=O)CCC(C)NCCc2c[nH]cn2)cc1 (configuration not stated)

>  <Measurement kind>
Change

>  <Numeric value>
0

$$$$
>  <Compound>
CNC(=O)CNC(=O)C(Cc1ccccc1)N(NC(=O)CCCCC(C)NCCc1c[nH]cn1)C(=O)OC(C)(C)C (configuration not stated)

>  <Measurement kind>
Change

>  <Numeric value>
0

$$$$

Parameters: items (list). Returns: Change for each item.
1. CNC(=O)CNC(=O)C(Cc1ccccc1)N(NC(=O)CCC(C)NCCc1c[nH]cn1)C(=O)OC(C)(C)C (configuration not stated)
2. CC(CCC(=O)Nc1ccc(C(F)(F)F)cc1)NCCc1c[nH]cn1 (configuration not stated)

1: 0; 2: 0

====

Target: Histamine H2 receptor (Mus musculus)
Test: Relative potency by cAMP assay in natural suppressor cells.
Assay type: functional, cell-based
Measurement kind: Relative potency
Give bare numbers.

>  <Compound>
CNC(=O)CNC(=O)C(Cc1ccccc1)N(NC(=O)CCCCC(C)NCCc1c[nH]cn1)C(=O)OC(C)(C)C (configuration not stated)

>  <Relative potency>
0

$$$$
>  <Compound>
Cc1ccc(NC(=O)CC(C)NCCc2c[nH]cn2)cc1 (configuration not stated)

>  <Relative potency>
0

$$$$
>  <Compound>
Cc1ccc(NC(=O)CCCCC(C)NCCc2c[nH]cn2)cc1 (configuration not stated)

>  <Relative potency>
3

$$$$
>  <Compound>
NCCc1c[nH]cn1

>  <Relative potency>
1

$$$$
>  <Compound>
CCCCCCNCCc1c[nH]cn1

>  <Relative potency>
5

$$$$

Parameters: items (list). Returns: Relative potency for each item.
1. Cc1ccc(NC(=O)CCCC(=O)NCCc2c[nH]cn2)cc1
2. CCCCCC(C)NCCc1c[nH]cn1 (configuration not stated)
3. CC(CCCCC(=O)Nc1ccccc1C(F)(F)F)NCCc1c[nH]cn1 (configuration not stated)

4.4
0
0

Parameters: items (list). Returns: Relative potency for each item.
1. CCCCCC(=O)NCCc1c[nH]cn1
2. Cc1ccc(NC(=O)CCC(C)NCCc2c[nH]cn2)cc1 (configuration not stated)
3. CC(CCCC(=O)Nc1ccc(C(F)(F)F)cc1)NCCc1c[nH]cn1 (configuration not stated)
4. Cc1ccc(NC(=O)CCCC(C)NCCc2c[nH]cn2)cc1 (configuration not stated)

1. 0
2. 0
3. 0
4. 4000

====

Target: Histamine H2 receptor (Mus musculus) (UniProt P97292)
Assay: Relative potency by cAMP assay in natural suppressor cells.
Format: functional, cell-based
Measurement kind: Relative potency
Numbers only.

>  <Compound>
CC(CC(=O)Nc1ccc(C(F)(F)F)cc1)NCCc1c[nH]cn1 (stereo not drawn)

>  <Relative potency>
0

$$$$
>  <Compound>
CC(CCCCC(=O)Nc1ccc(C(F)(F)F)cc1)NCCc1c[nH]cn1 (stereo not drawn)

>  <Relative potency>
40000

$$$$

Let us move to another entry and its Relative potency.
// returns reported Relative potency for input CCCCNC(=O)CCCCC(C)NCCc1c[nH]cn1 (stereo not drawn)
0

====

Biological target: Histamine H2 receptor (Cavia porcellus) (UniProt P47747)
Test: Relative potency in guinea pig myocardium (GPM) by adenylate cyclase stimulation assay, H2 receptor response
Assay type: functional, tissue-based
Threshold 0.07. Relative potency below it: Met. Relative potency at it or above: Not met.

Example cases with answers are listed next.
>  <Compound>
Cc1ccc(NC(=O)CCCCNCCc2c[nH]cn2)cc1

>  <Target entity>
Histamine H2 receptor (Cavia porcellus) (UniProt P47747)

>  <Class label>
Not met

$$$$
>  <Compound>
NCCc1c[nH]cn1

>  <Target entity>
Histamine H2 receptor (Cavia porcellus) (UniProt P47747)

>  <Class label>
Not met

$$$$

Given CC(CCCC(=O)Nc1ccc(C(F)(F)F)cc1)NCCc1c[nH]cn1 (stereo unspecified) , is recorded Relative potency strictly lower than 0.07?
Met

Repeat with CC(CCCCC(=O)Nc1ccc(C(F)(F)F)cc1)NCCc1c[nH]cn1 (stereo unspecified)
Met

Repeat with Cc1ccc(NC(=O)CCCC(C)NCCc2c[nH]cn2)cc1 (stereo unspecified)
Met
